- TARGET_DESC: Neuropeptide Y receptor type 5 (Homo sapiens)
- Sequence (Q15761 whole entry): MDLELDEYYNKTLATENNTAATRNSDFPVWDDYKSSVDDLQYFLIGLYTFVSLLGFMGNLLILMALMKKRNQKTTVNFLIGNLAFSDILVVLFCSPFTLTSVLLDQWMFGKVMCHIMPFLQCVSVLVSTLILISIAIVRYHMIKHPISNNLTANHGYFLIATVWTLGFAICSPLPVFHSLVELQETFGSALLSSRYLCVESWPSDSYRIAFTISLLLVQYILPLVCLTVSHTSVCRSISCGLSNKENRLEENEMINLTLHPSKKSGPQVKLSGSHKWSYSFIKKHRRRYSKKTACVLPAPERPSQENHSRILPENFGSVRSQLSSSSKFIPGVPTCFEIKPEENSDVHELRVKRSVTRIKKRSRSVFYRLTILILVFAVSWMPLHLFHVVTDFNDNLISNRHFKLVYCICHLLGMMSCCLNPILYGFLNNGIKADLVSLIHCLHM
- EXPERIMENT_NOTES: Displacement of [3H]propionyl-pNPY from human Y5 receptor expressed in human HEC1B cells
- Type: cell-based
- TEST_CONDITIONS: read-out: Ki
Square brackets hold non-standard residues; d marks the D form. Peptide text beside a SMILES is read from it. ξ: configuration not given here. ξOrn = NCCCC(N)C(=O)O
Consider the following compounds; for each one, report its Ki.

CC(=O)N[C@@H](CCCNC(=N)N)C(=O)N[C@@H](Cc1c[nH]c2ccccc12)C(=O)N[C@@H](CCCNC(=N)N)C(=O)N[C@@H](CC(C)C)C(=O)N[C@@H](CCCNC(=N)N)C(=O)N[C@@H](Cc1ccc(O)cc1)C(N)=O yielded Ki of > 1 µM

CC(C)C[C@H](NC(=O)[C@H](CCCNC(=N)N)NC(=O)[C@H](Cc1ccc(O)cc1)NC(=O)[C@@H](N)CCCNC(N)=O)C(=O)N[C@@H](CCCNC(=N)N)C(=O)N[C@@H](Cc1ccc(O)cc1)C(N)=O yielded Ki of > 10 µM

CC(=O)N[C@@H](CCCNC(=N)N)C(=O)N[C@@H](Cc1ccc(O)cc1)C(=O)N[C@@H](CCCNC(=N)N)C(=O)N[C@@H](CC(C)C)C(=O)N[C@@H](CCCNC(=N)N)C(=O)N[C@@H](Cc1ccc(O)cc1)C(N)=O yielded Ki of > 3 µM

CC(=O)N[C@@H](CCCNC(=N)N)C(=O)NC(CCCN)C(=O)NCC(=O)N[C@@H](Cc1c[nH]c2ccccc12)C(=O)N[C@@H](CCCNC(=N)N)C(=O)N[C@@H](CC(C)C)C(=O)N[C@@H](CCCNC(=N)N)C(=O)N[C@@H](Cc1ccc(O)cc1)C(N)=O (stereo not given in full) (Ac-R[ξOrn]GWRLRY-NH2) yielded Ki of > 1 µM

CC(C)C[C@H](NC(=O)[C@@H](N)CCCNC(=N)N)C(=O)N[C@@H](CCCNC(=N)N)C(=O)N[C@@H](Cc1ccc(O)cc1)C(N)=O yielded Ki of > 10 µM
